Taken from patent US20260374754A1.

ASSAY SYSTEM: human activated kallikrein enzyme (Homo sapiens, UniProt P03952)
Sequence (P03952 391-638 limits assumed): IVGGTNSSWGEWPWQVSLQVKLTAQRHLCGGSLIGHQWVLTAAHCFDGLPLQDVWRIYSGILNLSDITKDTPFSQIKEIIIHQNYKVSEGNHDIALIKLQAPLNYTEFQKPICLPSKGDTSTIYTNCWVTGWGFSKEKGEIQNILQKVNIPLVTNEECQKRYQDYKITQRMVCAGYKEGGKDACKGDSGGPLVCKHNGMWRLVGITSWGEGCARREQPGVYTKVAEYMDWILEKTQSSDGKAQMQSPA
Sequence (P03952 20-390 partner limits assumed): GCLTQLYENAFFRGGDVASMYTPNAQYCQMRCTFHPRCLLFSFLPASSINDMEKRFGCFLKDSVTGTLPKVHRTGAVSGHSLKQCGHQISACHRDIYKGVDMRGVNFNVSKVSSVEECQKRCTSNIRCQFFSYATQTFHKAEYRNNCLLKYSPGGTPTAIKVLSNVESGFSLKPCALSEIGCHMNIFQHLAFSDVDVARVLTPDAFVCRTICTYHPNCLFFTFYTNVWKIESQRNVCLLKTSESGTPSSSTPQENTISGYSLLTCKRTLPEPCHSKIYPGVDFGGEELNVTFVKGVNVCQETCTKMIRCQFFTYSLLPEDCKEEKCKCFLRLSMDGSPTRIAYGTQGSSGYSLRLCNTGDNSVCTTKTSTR
TEST DETAILS: Inhibition of human activated plasma kallikrein, fluorogenic PFR-AMC substrate, 500 pM enzyme format
Type: biochemical
EXPERIMENTAL PARAMETERS: 500 pM activated kallikrein; 300 μM PFR-AMC; 30 min preincubation; 10 min room temperature; pH 7.5; read-out: Primary Dose Response Assay: Average EC50
pEC50: −log10 of the molar value.
Give measured pEC50 for each item. Keep answers brief.

Consider the following illustrative entries.
[[record]]
smiles = "CCc1cccc2nc(Cn3cc(C(=O)NCc4c(C)cc5c(N)nccc5c4C)cn3)cn12"
assay_system = "human activated kallikrein enzyme (Homo sapiens, UniProt P03952)"
observed = "> 9.00"

[[record]]
smiles = "Cc1cc2c(N)nccc2c(C)c1CNc1cc(OCc2nc3ccc(C4CC4)cn3n2)nc(CCC(=O)O)n1"
assay_system = "human activated kallikrein enzyme (Homo sapiens, UniProt P03952)"
observed = "8.00 to 9.00"

[[record]]
smiles = "Cc1ccnc(Cc2ccc(CNc3cc(NCc4c(C)cc5c(N)nccc5c4C)ncn3)cc2)c1"
assay_system = "human activated kallikrein enzyme (Homo sapiens, UniProt P03952)"
observed = "> 9.00"


Now look at this one.
Query: Record lookup: for human activated kallikrein enzyme (Homo sapiens, UniProt P03952), what pEC50 belongs to Cc1cc(CNc2cc(NCc3c(C)cc4c(N)nccc4c3C)ncn2)cc(C)c1Cc1ccccn1 ?
Result: > 9.00
